# Method Description: NOD1 signaling inhibitors, primary screen, cell-based, luminescence, uHTS (AID 1578);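 note: HEK-293T reporter cells stimulated with the NOD1 agonist gamma-tri-DAP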
# Measurement Setup: NOD1-driven NF-kB luciferase reporter cells, at 4 µM, stronger effect = higher value
The whole screen tested about 290,000 compounds, of which about 3,000 (1%) were called active. The sample holds actives, similar compounds and a random draw of the others, so the mix is not that of the screen.
The threshold is inclusive: inhibition of exactly -10% counts as 1.0; values below receive 0.0.

- Compound: "Cc1ccc(S(=O)(=O)NC(Cc2ccccc2)C(=O)NN)cc1 (stereo unspecified)"
  Cat: 0.0
- Compound: "Cc1ccc(CNC(=O)CCS(=O)(=O)c2cc3c(cc2Cl)NC(=O)CO3)o1"
  Cat: 0.0

[in] Is the recorded value of inhibition equal to or greater than -10% for this compound? "Clc1ccccc1N1CCN(c2ncnc3nc[nH]c23)CC1"
[out] 0.0

[in] "CN(Cc1ccccc1F)c1nc(-c2cccs2)nc2ccccc12" , same question.
[out] 1.0

[in] Another compound to look at: "COc1cccc(CN(C)c2nc(-c3cccs3)nc3ccccc23)c1"
[out] 1.0

[in] Would you mind doing "CCOC(=O)c1ccc(-n2c(C)ccc2C)cc1" as well?
[out] 0.0

[in] // next record "O=C(CSc1ccc2c(c1)OCCO2)Nc1ccc(N2CCOCC2)cc1"
[out] 0.0

[in] Again, but for "CCOC(=O)c1ccc(N2C(=O)C(C)=C(C)C2=O)cc1"
[out] 0.0

[in] Proceed to Cc1ccc(S(=O)(=O)NC(Cc2ccccc2)C(=O)O)cc1 (stereo unspecified)
[out] 0.0

[in] # repeat for "O=C(NCc1ccco1)c1c[nH]c2ccc(S(=O)(=O)N3CCOCC3)cc2c1=O"
[out] 0.0

[in] Next compound: "Cn1cc(C(=O)NCc2cccs2)c(=O)c2cc(S(=O)(=O)N3CCCC3)ccc21"
[out] 1.0

###

# Method Description: NOD1 signaling inhibitors, primary screen, cell-based, luminescence, uHTS (AID 1578);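 note: HEK-293T reporter cells stimulated with the NOD1 agonist gamma-tri-DAP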
# Measurement Setup: NOD1-driven NF-kB luciferase reporter cells, at 4 µM, stronger effect = higher value
In all, about 290,000 compounds went through this assay and about 3,000 (1%) were called active. The sample as a whole holds a higher share of actives than the screen did.
Property Measured: inhibition (%)
Answer format: numeric, % implied, no suffix.

Worked cases, answers included:
- Compound: "CC(=O)Nc1ccc(NC(=O)C2(C)CC2(Cl)Cl)cc1 (centres undefined)"
  inhibition / %: -29.2
- Compound: "O=C(O)c1cccc(N/N=C/c2ccc(F)c(F)c2)c1"
  inhibition / %: -12.4
- Compound: "O=C(Nc1ccccc1)c1c(F)cccc1F"
  inhibition / %: -2.4
- Compound: "O=C(N/N=C/C(Br)=C/c1ccccc1)c1cccnc1"
  inhibition / %: 10.1
- Compound: "Cc1ccc(/C=N/Nc2cccc(C(=O)O)c2)s1"
  inhibition / %: 4.1

[in] Reported inhibition for "Cc1ccsc1/C=N/Nc1ccc(C(=O)O)cc1" : what is it?
[out] -2.3

[in] Can you handle "CC(C)C(=O)Nc1ccc(C(=O)NCc2cccnc2)cc1" next?
[out] -35.1

[in] Next record, please: "CSc1cccc(NC(=O)CCn2c(=O)c3cccn3c3cccnc32)c1"
[out] -16.4

[in] Then this compound: COc1ccc(NC(C)=O)cc1S(=O)(=O)NC(Cc1ccccc1)C(=O)O (centres undefined)
[out] -2.4

[in] Try this compound too: O=C1CC(c2nc3ccccc3[nH]2)CN1Cc1ccccc1 (centres undefined)
[out] -15

[in] Again, but for "Cc1cccc(N2CCCn3c2nc2c3c(=O)n(CCN3CCOCC3)c(=O)n2C)c1"
[out] 17.7

[in] Now consider "Cc1ccc(C(=O)/C=C/c2ccc(Br)cc2)o1" and answer again.
[out] 21

[in] Please give the result for "COc1ccc(Cl)cc1N/C(N)=N/c1nc(CSc2ccc(C)cc2)cc(=O)[nH]1" too.
[out] -6

[in] Please answer likewise for "O=C(N/N=C/c1cccc2nccnc12)c1ccccc1O"
[out] 6

[in] Similarly, "CN(c1cccc(Cl)c1)S(=O)(=O)c1cccc(C(=O)Nc2nc3ccccc3[nH]2)c1" ?
[out] 53

[in] # iterate: "Cc1ccc(C(=O)/C=C/c2cc(Br)cc(Br)c2O)o1"
[out] 89.5

[in] And then "Cc1ccc(SCc2cc(=O)[nH]c(/N=C(\N)Nc3cccc4ccccc34)n2)cc1" , what is it?
[out] -11.6

[in] And "COc1cccc(-n2c(Cn3nc(C(F)(F)F)cc3C)n[nH]c2=S)c1" ?
[out] 2.3

[in] // query: "CN(C)c1ccc(/C=N/Nc2cccc(C(=O)O)c2)cc1"
[out] 72.1

[in] Same for "Cc1ccc(C(=O)/C=C/c2ccccc2)o1"
[out] -0.9

[in] Please answer likewise for "O=C(Nc1ccncc1)c1c(F)c(F)c(F)c(F)c1F"
[out] 11
